tgt: human recombinant Aurora A (Homo sapiens (Human), UniProt O14965)
Sequence (O14965 whole entry): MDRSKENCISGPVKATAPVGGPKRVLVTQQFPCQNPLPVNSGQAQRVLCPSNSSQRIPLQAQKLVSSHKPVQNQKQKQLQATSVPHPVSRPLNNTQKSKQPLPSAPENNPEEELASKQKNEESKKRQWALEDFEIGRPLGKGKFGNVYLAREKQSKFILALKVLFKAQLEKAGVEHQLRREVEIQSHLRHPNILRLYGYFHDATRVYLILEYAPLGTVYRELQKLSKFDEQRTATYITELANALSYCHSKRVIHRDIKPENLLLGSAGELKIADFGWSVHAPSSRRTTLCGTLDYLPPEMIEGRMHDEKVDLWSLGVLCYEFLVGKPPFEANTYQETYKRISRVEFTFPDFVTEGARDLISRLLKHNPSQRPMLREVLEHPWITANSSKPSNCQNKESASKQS
protocol-description: Aurora A Kinase Biochemical Assay (ADP-Glo)
experimental-setup: ratio of Aurora A IC50 to PLK4 IC50 (selectivity)
parameter: [Aurora A IC50 (nM)]/[PLK4 IC50 (nM)]
Format: numeric value only, no unit, no commentary.

Measured [Aurora A IC50 (nM)]/[PLK4 IC50 (nM)], COc1ccc2c(c1)[C@]1(C[C@H]1c1ccc3c(Nc4cc(N5CCC5)ncn4)n[nH]c3c1)C(=O)N2 [Example 45] : 137.8309

Measured [Aurora A IC50 (nM)]/[PLK4 IC50 (nM)] of COc1ccc2c(c1)[C@]1(C[C@H]1c1ccc3c(Nc4nc(CC(C)(C)O)nc(N5CCOCC5)c4OC)n[nH]c3c1)C(=O)N2 [Example 93] : 1733.361

GET /value?item= COc1ccc2c(c1)[C@]1(C[C@H]1c1ccc3c(Nc4ccc(C(=O)N5CC6(COC6)C5)nc4OC)n[nH]c3c1)C(=O)N2 [Example 188] &field=[Aurora A IC50 (nM)]/[PLK4 IC50 (nM)] returns 7974.4817

Quick note, [Aurora A IC50 (nM)]/[PLK4 IC50 (nM)] for COc1cnc(OC)c(Nc2n[nH]c3cc([C@@H]4C[C@@]45C(=O)Nc4ccc(OC)cc45)ccc23)c1 [Example 164] landed at 397.0049

Measured [Aurora A IC50 (nM)]/[PLK4 IC50 (nM)] of COc1ccc2c(c1)[C@]1(C[C@H]1c1ccc3c(Nc4cnn(C)c4)n[nH]c3c1)C(=O)N2 [Example 65] : 82.48
